- experimental.target: Apime-ASTA-R (Apis mellifera, UniProt A0A7M7ILT1)
- Sequence (A0A7M7ILT1 1-361): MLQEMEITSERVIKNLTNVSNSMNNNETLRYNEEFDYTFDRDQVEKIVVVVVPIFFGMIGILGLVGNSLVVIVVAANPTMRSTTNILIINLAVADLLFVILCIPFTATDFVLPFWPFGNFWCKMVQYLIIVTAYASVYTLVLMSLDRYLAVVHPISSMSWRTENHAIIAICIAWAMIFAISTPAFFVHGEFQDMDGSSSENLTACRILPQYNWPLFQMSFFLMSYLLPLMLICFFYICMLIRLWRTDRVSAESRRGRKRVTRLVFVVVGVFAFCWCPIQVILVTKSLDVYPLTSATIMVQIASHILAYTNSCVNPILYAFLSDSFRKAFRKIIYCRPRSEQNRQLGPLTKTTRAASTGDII
- procedure.text: Intracellular cAMP reporter assay, HEK293 cells expressing Apime-ASTA-R
- Type: cell-based
- condition.label: CRE-luciferase, 200 μM IBMX, no exogenous G protein, 37°C 3–4 h, normalized to mock-transfected cells; 3 independent transfections in triplicate, Fig 5C; read-out: mean EC50, increase in cAMP levels
Where no end group is shown, it is not given here.
test.readout: pEC50
Please report pEC50 as the negative decimal logarithm of the molar concentration, giving only the number.

substance GRQPYSFGL-NH2 [Apime-ASTA] , pEC50 observed: 6.99
